Every entry's value here was drawn from PubChem BioAssay AID1996.

settings: buffer; pH 7.4; 200.0 µM
Property: solubility kinetic; scope: individual compounds

COMPOUND | solubility kinetic
CCOc1ccc2oc(C(=O)N3CCCN(C)CC3)c(C)c2c1.Cl | > 52.9 µg/mL
O=C(O)C1CC=CCC1C(=O)NCc1ccc(Cl)c(Cl)c1 (centres undefined) | > 49.2 µg/mL
Cc1ccc(C(=O)O)cc1NCc1ccncc1 | > 36.3 µg/mL
CN1CC(=O)N(CC(=O)Nc2ccc3c(c2)CCC3)C1=O | > 43.1 µg/mL
Cc1nn(CC(=O)N(CC(C)C)C2CCS(=O)(=O)C2)c(C)c1[N+](=O)[O-] (centres undefined) | > 55.9 µg/mL
Cc1noc2ncnc(Oc3ccc(C(C)(C)C)cc3)c12 | < 0.2 µg/mL
COc1cc(C(=O)NCC(=O)Nc2c(C)cccc2C)ccc1OCC(=O)N1CCOCC1 | > 68.3 µg/mL
COCCNc1oc(/C=C/c2ccccc2)nc1C#N | > 40.4 µg/mL
Cc1[nH]c(=S)c(C#N)c(-c2ccccc2)c1C(=O)Nc1ccccc1 | > 51.8 µg/mL
CC(C)(C)C(=O)Nc1ccc(-c2cnco2)cc1 | > 36.6 µg/mL
CC1CCC(NC(=O)Cn2cnc3sccc3c2=O)CC1 (centres undefined) | > 45.8 µg/mL
Cc1cccc(NC(=O)CCN2CCN(C)CC2)c1.Cl | > 44.7 µg/mL
CCCn1c(SCC(=O)Nc2ccc(Cl)cc2F)nc(O)cc1=O | > 55.8 µg/mL
CC(=O)C1=C(O)CCCC1=NCc1nc2ccccc2[nH]1 | > 42.5 µg/mL

---

Property: solubility kinetic; scope: individual compounds
settings: buffer; pH 7.4; 200.0 µM
MEASUREMENT_KIND: solubility kinetic

COMPOUND | RESULT
O=C1CNC(=O)N1 | > 0.015 mg/mL
Cc1cc(C)n2nc(SCC(=O)NC3CCCCC3)nc2n1 | > 0.0479 mg/mL
CC1CCCCN1C(=O)CNCC1CCCO1.O=C(O)C(=O)O (stereo not drawn) | > 0.0496 mg/mL
O=C(NCc1ccccn1)C1CC(c2ccccc2Cl)=NO1 (stereo not drawn) | > 0.0474 mg/mL
O=C(NCCCn1ccnc1)c1ccc(Cl)c(Cl)c1 | > 0.0447 mg/mL
COc1cccc(CSc2nccn2C)c1 | > 0.0351 mg/mL
Oc1ccc(C=NCCc2ccccc2)cc1 | > 0.0338 mg/mL
Cl.NCC12CC3CC(C1)CC(c1ccc(Cl)cc1)(C3)C2 | > 0.0468 mg/mL
O=[N+]([O-])c1ccc(C(=S)N2CCCC2)cc1 | > 0.0354 mg/mL
CCN(CC)C(=O)Oc1ccc(NC(=O)N2CCOCC2)cc1 | > 0.0482 mg/mL
COc1ccc(C(=O)NC(=S)NC2CCCCC2)cc1 | 0.0048 mg/mL
CCOP(=O)(OCC)C(O)c1ccc(N(C)C)cc1 (stereo not drawn) | > 0.0431 mg/mL
O=C(O)CC1S/C(=N/N=C/c2ccccn2)NC1=O (stereo not drawn) | > 0.0417 mg/mL
CC(C)(C)NC(=O)NC(=O)CN1CCN(Cc2ccccc2)CC1 | 0.0453 mg/mL
CC1C(=O)C(C)C(c2ccc(O)cc2)NC1c1ccc(O)cc1 (stereo not drawn) | 0.0454 mg/mL
CCOC(=O)C1CCN(C(=O)c2ccc(C)o2)CC1 | > 0.0398 mg/mL
O=C(COC(=O)c1cnc(Cl)c(Cl)c1)NC1CC1 | > 0.0434 mg/mL
O=C(NCCCN1CCOCC1)c1ccc2ccccc2c1 | > 0.0448 mg/mL
O=C(COc1ccccc1Cl)NCCCNC(=O)c1ccccn1 | > 0.0522 mg/mL
O=C(CN1C(=O)NC2(CCCCCC2)C1=O)NCCc1ccccc1 | > 0.0515 mg/mL
COC(=O)c1ccc(Nc2ncnc3sccc23)cc1 | 0.0018 mg/mL
Cc1ccc(NC(=O)CNc2cccc(Br)c2)cc1S(=O)(=O)N1CCOCC1 | 0.0143 mg/mL
O=c1c2cc(NC(=S)N3CCCC3)ccc2nc2n1CCCCC2 | 0.0061 mg/mL
O=C(/C=C/c1ccco1)NCCc1ccc(F)cc1 | 0.0103 mg/mL
COc1cc(C(=O)OC(C)C(=O)N2CCCC2)cc2c1OCCO2 (stereo not drawn) | > 0.0503 mg/mL
COc1cc(Br)ccc1NC(=O)c1ccccc1-c1ccccc1C(=O)O | 0.0533 mg/mL
C=CCOc1ccc(/C=C/C(=O)OCC(=O)NC2CCCCCC2)cc1 | < 0.0008 mg/mL
COc1ccc(C(=O)OCC(=O)NCCN2C(=O)CSC2=O)cc1[N+](=O)[O-] | > 0.0596 mg/mL
CC(C)(C)CC(=O)Nc1ccc(S(=O)(=O)NC2=NCCCCC2)cc1 | > 0.0548 mg/mL
O=C(Nc1ccc(Cl)cc1)C1CCCCN1S(=O)(=O)c1ccccc1 (stereo not drawn) | 0.0247 mg/mL
COc1ccc(C(=O)NCC(=O)OCC(=O)NC23CC4CC(CC(C4)C2)C3)cc1 | > 0.0601 mg/mL
COc1ccc(CCNC(=O)Nc2cccc([N+](=O)[O-])c2)cc1 | 0.0023 mg/mL
Cc1cc(Cc2c(O)[nH]c(=S)[nH]c2=O)ccc1OC(C)C | 0.0348 mg/mL
